- target-desc: KRAS-G12D (Homo sapiens, UniProt P01116, G12D)
- Construct: endogenous in cells; host or cells: A-427 (ATCC), AGS, AsPc-1, Panc 04.03
- Sequence (P01116 1-188 isoform P01116-2 G12D): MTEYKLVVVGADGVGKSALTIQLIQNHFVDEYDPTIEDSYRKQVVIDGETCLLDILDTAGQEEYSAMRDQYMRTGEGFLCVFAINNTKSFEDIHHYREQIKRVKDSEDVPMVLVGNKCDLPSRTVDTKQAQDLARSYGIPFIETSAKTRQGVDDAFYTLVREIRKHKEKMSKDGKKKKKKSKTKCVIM
- assay-overview: KRAS-G12D degradation assay (Western Blot), AsPc-1 cells
- Format: cell-based
- test-conditions: ASPC1, 24 h
- Description: The degradation effects of the compounds on KRAS-G12D were investigated on KRAS G12D mutant human lung cancer cell A-427 (ATCC), KRAS G12D mutant human gastric cancer cell AGS, KRAS G12D mutant human metastatic pancreatic cancer cell AsPc-1, and KRAS G12D mutant human pancreatic adenocarcinoma cell Panc 04.03. […]
Listed here are molecules together with their documented Dmax.

molecule: C#Cc1c(F)ccc2cc(O)cc(-c3ccc4c(N5CC6CCC(C5)N6)nc(OCC(C)CN5CCN(CC6CCC7(CC6)CCN(C(=O)c6ccc(C)c(N8CCC(=O)NC8=O)c6)CC7)CC5)nc4c3F)c12 (stereo not drawn)
Dmax: 100%

molecule: CCc1cccc2cc(O)cc(-c3ncc4c(N5CC6CCC(C5)N6)nc(OCC5(CN6CCN(CC7CCC8(CC7)CCN(C(=O)c7ccc(C)c(N9CCC(=O)NC9=O)c7)CC8)CC6)CC5)nc4c3F)c12
Dmax: 99.4%

molecule: C#Cc1c(F)ccc2cc(O)cc(-c3ncc4c(N5CC6CCC(C5)N6)nc(OC[C@H](C)CN5CCN(CC6CCC7(CC6)CCN(C(=O)c6ccc(CC)c(N8CCC(=O)NC8=O)c6)CC7)CC5)nc4c3F)c12
Dmax: 99.2%

molecule: [2H]C([2H])(C1CCC2(CC1)CCN(C(=O)c1ccc(C)c(N3CCC(=O)NC3=O)c1)CC2)N1CCN(CC2(COc3nc(N4CC5CCC(C4)N5)c4ccc(-c5cc(O)cc6ccc(F)c(C#C)c56)c(F)c4n3)CC2)CC1
Dmax: 97.5%

molecule: [2H]C([2H])([2H])Oc1ccc(C(=O)N2CCC3(CCC(CN4CCN(C[C@@H](C)COc5nc(N6CC7CCC(C6)N7)c6cnc(-c7cc(O)cc8ccc(F)c(C#C)c78)c(F)c6n5)CC4)CC3)CC2)cc1N1CCC(=O)NC1=O
Dmax: 100%

molecule: C#Cc1c(F)ccc2cc(O)cc(-c3ncc4c(N5CC6CCC(C5)N6)nc(OC[C@H](C)CN5CCN(CC6CCC7(CC6)CCN(C(=O)c6cc(N8CCC(=O)NC8=O)c(C)cc6F)CC7)CC5)nc4c3F)c12
Dmax: 99%

molecule: C#Cc1c(F)ccc2cc(O)cc(-c3ncc4c(N5CC6CCC(C5)N6)nc(OCC5(CN6CCN(CC7CCC8(CC7)CCN(C(=O)c7ccc(Cl)c(N9CCC(=O)NC9=O)c7)CC8)CC6)CC5)nc4c3F)c12
Dmax: 100%

molecule: C#Cc1c(F)ccc2cc(O)cc(-c3ncc4c(N5CC6CCC(C5)N6)nc(OC[C@@H](CN5CCN(CC6CCC7(CC6)CCN(C(=O)c6ccc(C)c(N8CCC(=O)NC8=O)c6)CC7)CC5)OC)nc4c3F)c12
Dmax: 55%

molecule: C#Cc1cccc2cc(O)cc(-c3ncc4c(N5CC6CCC(C5)N6)nc(OCC5(CN6CCN(CC7CCC8(CC7)CCN(C(=O)c7ccc(Cl)c(N9CCC(=O)NC9=O)c7)CC8)CC6)CC5)nc4c3F)c12
Dmax: 99.5%

---

- target-desc: Human KRAS G12D 6His-tagged (Homo sapiens, UniProt P01116, G12D)
- Construct: purchased PerkinElmer
- assay-overview: KRAS-G12D/GTP binding assay (HTRF)
- test-conditions: class symbols
Listed here are compounds together with their documented IC50.

compound: C#Cc1c(F)ccc2cc(O)cc(-c3ncc4c(N5CC6CCC(C5)N6)nc(OCC5(CN6CCN(CCC7CCC8(CC7)CCN(C(=O)c7ccc(Cl)c(N9CCC(=O)NC9=O)c7)CC8)CC6)CC5)nc4c3F)c12 [Example 18]
IC50: ≤ 0.05 µM
//
compound: C#Cc1c(F)ccc2cc(O)cc(-c3ncc4c(N5CC6CCC(C5)N6)nc(OCC5(CN6CC7CC6CN7CC6CCC7(CC6)CCN(C(=O)c6ccc(Cl)c(N8CCC(=O)NC8=O)c6)CC7)CC5)nc4c3F)c12 (centres unmarked) [Example 59]
IC50: ≤ 0.05 µM
//
compound: C#Cc1c(F)ccc2cc(O)cc(-c3ncc4c(N5CC6CCC(C5)N6)nc(OCC5(CN6CCN(CC7CCC8(CC7)CCN(C(=O)c7ccc(Br)c(N9CCC(=O)NC9=O)c7)CC8)CC6)CC5)nc4c3F)c12 [Example 29]
IC50: ≤ 0.05 µM
//
compound: CCc1cccc2cc(O)cc(-c3ncc4c(N5CC6CCC(C5)N6)nc(OC[C@@H]5CCCN5CCC5CCN(CCC(=O)N[C@H](C(=O)N6C[C@H](O)C[C@H]6C(=O)NCc6ccc(-c7scnc7C)cc6)C(C)(C)C)CC5)nc4c3F)c12 [Example 34]
IC50: 0.1 to 0.5 µM
//
compound: Cc1ccc(C(=O)N2CCC3(CCC(CN4CCN(CC5(COc6nc(N7CC8CCC(C7)N8)c7cnc(-c8cccc9cccc(Cl)c89)c(F)c7n6)CC5)CC4)CC3)CC2)cc1N1CCC(=O)NC1=O [Example 45]
IC50: ≤ 0.05 µM

---

Listed here are molecules together with their documented DC50.
- target-desc: KRAS-G12D (Homo sapiens, UniProt P01116, G12D)
- Construct: endogenous in cells; host or cells: A-427 (ATCC), AGS, AsPc-1, Panc 04.03
- assay-overview: KRAS-G12D degradation assay (Western Blot), AsPc-1 cells
- Assay type: cell-based
- test-conditions: 24 h

molecule: C#Cc1c(F)ccc2cc(O)cc(-c3ccc4c(N5CC6CCC(C5)N6)nc(OC[C@H](C)CN5CCN(CC6CCC7(CC6)CCN(C(=O)c6ccc(OC)c(N8CCC(=O)NC8=O)c6)CC7)CC5)nc4c3F)c12 [Example 207]
DC50 / nM: 15.1
//
molecule: CCc1cccc2cc(O)cc(-c3ncc4c(N5CC6CCC(C5)N6)nc(OCC5(CN6CCN(CC7CCC8(CC7)CCN(C(=O)c7ccc(Cl)c(N9CCC(=O)NC9=O)c7)CC8)CC6)CC5)nc4c3F)c12 [Example 50]
DC50 / nM: 33.1
//
molecule: C#Cc1c(F)ccc2cc(O)cc(-c3ncc4c(N5CC6CCC(C5)N6)nc(OC[C@@H](CN5CCN(CC6CCC7(CC6)CCN(C(=O)c6ccc(C)c(N8CCC(=O)NC8=O)c6)CC7)CC5)OC)nc4c3F)c12 [Example 172]
DC50 / nM: 113
//
molecule: C#Cc1c(F)ccc2cc(O)cc(-c3ncc4c(N5CC6CCC(C5)N6)nc(OCC5(CN6CCN(CC7CCC8(CCN(C(=O)c9ccc(C)c(N%10CCC(=O)NC%10=O)c9)CC8)CO7)CC6)CC5)nc4c3F)c12 (stereo not drawn) [Example 106]
DC50 / nM: 10.5
//
molecule: CCc1c(F)ccc2cc(O)cc(-c3ccc4c(N5CC6CCC(C5)N6)nc(OCC5(CN6CCN(CC7CCC8(CC7)CCN(C(=O)c7ccc(OC)c(N9CCC(=O)NC9=O)c7)CC8)CC6)CC5)nc4c3F)c12 [Example 73]
DC50 / nM: 35.7
//
molecule: C#Cc1c(F)ccc2cc(O)cc(-c3ncc4c(N5CC6CCC(C5)N6)nc(OC[C@H](C)CN5CCN(CC6CCC7(CC6)CCN(C(=O)c6ccc(OC)c(N8CCC(=O)NC8=O)c6)CC7)CC5)nc4c3F)c12 [Example 90]
DC50 / nM: 1.87
//
molecule: CCc1c(F)ccc2cc(O)cc(-c3ccc4c(N5CC6CCC(C5)N6)nc(OCC5(CN6CCN(CC7CCC8(CC7)CCN(C(=O)c7ccc(C)c(N9CCC(=O)NC9=O)c7)CC8)CC6)CC5)nc4c3F)c12 [Example 75]
DC50 / nM: 8.79
//
molecule: C#Cc1c(F)ccc2cc(O)cc(-c3ncc4c(N5CC6CCC(C5)N6)nc(OC[C@@H](C)CN5CCN(CC6CCC7(CC6)CCN(C(=O)c6ccc(OC)c(N8CCC(=O)NC8=O)c6)CC7)CC5)nc4c3F)c12 [Example 254]
DC50 / nM: 32.5
//
molecule: C#Cc1c(F)ccc2cc(O)cc(-c3ccc4c(N5CC6CCC(C5)N6)nc(OCC5(CN6CCN(CC7CCC8(CC7)CCN(C(=O)c7ccc(C)c(N9CCC(=O)NC9=O)c7)CC8)CC6)CC5)nc4c3F)c12 [Example 42]
DC50 / nM: 0.22
//
molecule: Cc1ccc(C(=O)N2CCC3(CCC(CN4CCN(CC5(COc6nc(N7CC8CCC(C7)N8)c7cnc(-c8cc(O)cc(Cl)c8C8CC8)c(F)c7n6)CC5)CC4)CC3)CC2)cc1N1CCC(=O)NC1=O [Example 81]
DC50 / nM: 17.8
//
molecule: C#Cc1c(F)ccc2cc(O)cc(-c3ncc4c(N5CC6CCC(C5)N6)nc(OC[C@H](C)CN5CCN(CC6CCC7(CC6)CCN(C(=O)c6ccc(C)c(N8CCC(=O)NC8=O)c6)CC7)CC5)nc4c3F)c12 [Example 100]
DC50 / nM: 2.54
//
molecule: CCc1c(F)ccc2cc(O)cc(-c3ncc4c(N5CC6CCC(C5)N6)nc(OCC5(CN6CCN(CC7CCC8(CC7)CCN(C(=O)c7ccc(OC)c(N9CCC(=O)NC9=O)c7)CC8)CC6)CC5)nc4c3F)c12 [Example 15]
DC50 / nM: 13
//
molecule: C#Cc1c(F)ccc2cc(O)cc(-c3ncc4c(N5CC6CCC(C5)N6)nc(OC[C@@H](CN5CCN(CC6CCC7(CC6)CCN(C(=O)c6ccc(OC)c(N8CCC(=O)NC8=O)c6)CC7)CC5)C(C)C)nc4c3F)c12 [Example 252]
DC50 / nM: 42.3
//
molecule: C#Cc1c(F)ccc2cc(O)cc(-c3ncc4c(N5CC6CCC(C5)N6)nc(OC[C@H](C)CN5CCN(CC6CCC7(CC6)CCN(C(=O)c6ccc(Cl)c(N8CCC(=O)NC8=O)c6)CC7)CC5)nc4c3F)c12 [Example 102]
DC50 / nM: 8.93
//
molecule: C#Cc1c(F)ccc2cc(O)cc(-c3ncc4c(N5CC6CCC(C5)N6)nc(OCC5(CN6CCN(CC7CCC8(CC7)CCN(C(=O)c7ccc(Cl)c(N9CCC(=O)NC9=O)c7)CC8)CC6)CC5)nc4c3F)c12 [Example 6]
DC50 / nM: 2.9
//
molecule: C#Cc1cccc2cc(O)cc(-c3ccc4c(N5CC6CCC(C5)N6)nc(OCC5(CN6CCN(CC7CCC8(CC7)CCN(C(=O)c7ccc(Cl)c(N9CCC(=O)NC9=O)c7)CC8)CC6)CC5)nc4c3F)c12 [Example 78]
DC50 / nM: 23.7
//
molecule: C#Cc1c(F)ccc2cc(O)cc(-c3ncc4c(N5CC6CCC(C5)N6)nc(OC[C@H](C)CN5CCN(CC6CCC7(CC6)CCN(C(=O)c6cc(N8CCC(=O)NC8=O)c(C)cc6F)CC7)CC5)nc4c3F)c12 [Example 173]
DC50 / nM: 2.42
//
molecule: CCc1cccc2cc(O)cc(-c3ncc4c(N5CC6CCC(C5)N6)nc(OCC5(CN6CCN(CC7CCC8(CC7)CCN(C(=O)c7ccc(OC)c(N9CCC(=O)NC9=O)c7)CC8)CC6)CC5)nc4c3F)c12 [Example 20]
DC50 / nM: 0.57
